Tested on: DU-145 prostate
Assay method text: NCI tumour cell line growth inhibition, 48 h
Peptide text beside a SMILES is read from it. * marks the point of attachment. X34 = O=C(c1ccc(-c2ccc(Cl)cc2Cl)o1)*
Readout name: TGI

Would you please look over these solved cases?
INSERT INTO assay_data (compound, readout_name, obs_value) VALUES
  ('S=C1SCN(Cc2ccccc2)CN1Cc1ccccc1', 'TGI', '9.18 µM'),
  ('COc1ccc(C2=NN(C(C)=O)C(c3ccc(Oc4ccnc5cc(Cl)ccc45)c(OC)c3)C2)cc1 (stereo not given)', 'TGI', '> 100 µM'),
  ('O=c1cc(-c2ccccc2)oc2c1ccc1ccccc12', 'TGI', '> 100 µM'),
  ('Cn1c2ccccc2c2c3c(c4c5ccccc5n(C5OC(CO)C(O)C(O)C5O)c4c21)C(=O)OC3=O (stereo not given)', 'TGI', '> 100 µM'),
  ('CNC(=O)N1CN(c2ccccc2)C2(CCN(Cc3ccccc3)CC2)C1=O', 'TGI', '> 100 µM'),
  ('Cc1c[nH]c(=O)n(Cc2nnc(CCC(=O)c3nc4ccccc4[nH]3)o2)c1=O', 'TGI', '1.21 µM'),
  ('[C-]#[N+]C(=C\c1ccc(O)cc1)/C(=C/c1ccc(O)cc1)[N+]#[C-]', 'TGI', '7.23 µM'),
  ('Cc1oc2nc(N(C)C)nc(NN)c2c1C', 'TGI', '> 100 µM');

Return value of TGI for input `C=CCOc1ccc(N)c([N+](=O)[O-])c1` , no commentary.
> 100 µM

Give recorded TGI. COC(=O)C(CC(C)C)NC(=O)C(Cc1ccccc1)NC(=O)C1CCCN1C(=O)C(CO)NC(=O)c1ccc(-c2ccc(Cl)cc2Cl)o1 (stereo not given) (X34-SPFL-OMe; configuration not given here)
> 100 µM

Tell me measured TGI for `Nc1ncnc2c1ncn2[C@@H]1O[C@H](COP(=O)(O)OP(=O)(O)OC[C@H]2O[C@@H](OCCCO)[C@H](O)[C@@H]2O)[C@@H](O)[C@H]1O` please.
> 100 µM

Quick one: give measured TGI for Cc1ccc2[nH]c(C(=O)NN3C(=O)C(C)SC34CCC(C)CC4)c(-c3ccccc3)c2c1 (stereo not given)
54.3 µM

Return the recorded TGI value; entry: `CC1=C[C@H]([C@H]2C=C(C)C(C(N)=O)=CN2Cc2c(Cl)cccc2Cl)N(Cc2c(Cl)cccc2Cl)C=C1C(N)=O`
> 75 µM

Input `CN(/N=C/c1ccc(Cl)c(Cl)c1)C1=NCCCCN1` , output reported TGI.
> 100 µM

Look up and report measured TGI for this entry: `COc1ccc(C(=O)CCN(C)C)c2ccccc12`
> 62 µM

Determine from records and report TGI for O=C1CCCCCCCCCCC1CN1CCOCC1 (stereo not given)
> 100 µM

// Input: CC1(O)C2(c3ccccc3)CCC[N+]1(C)CC2 (stereo not given) . Output its TGI only.
> 100 µM

Give TGI for the following compound: `CCOC(=O)[C@@H](NC(=O)OC(C)(C)C)[C@@H](O)C(=O)OCC`
> 100 µM

Provide one value: measured TGI of `Cc1ccc2[nH]c(O)c(N=Nc3ccccc3[N+](=O)[O-])c2c1`
> 100 µM

Item `COc1cc(NS(C)(=O)=O)ccc1Cc1c2ccccc2nc2ccccc12` : provide TGI
0.649 µM
